src = ChEMBL document CHEMBL1149476

selectivity ratio listing for selected molecules.
- test-method-notes: Therapeutic index, LD50 for ScN2a cells/EC50 for PrPSc accumulation in ScN2a cells
- Format: cell-based
- study-conditions: mouse, read-out: Ratio LD50/EC50
API doc: respond with a numeric literal and nothing else, no unit.

Exercise: Using the record for `CCCN(CCCNc1c2ccc(OC)cc2nc2c(C)cccc12)CC(C)C` , report its selectivity ratio.
Solution: 1.3

Exercise: Using the record for `CCCN(CC)CCCNc1c2ccc(OC)cc2nc2ccc(Cl)cc12` , report its selectivity ratio.
Solution: 13.6

###

- Test system: ScN2a
- test-method-notes: Inhibition of PrPSc accumulation in mouse ScN2a cell line relative to control
- Format: functional, cell-based
readout-label: log10(EC50) (log10 of the value in nM)
# values: log10(EC50), units nM

CCCN(CCC)CCCNc1c2ccc(OC)cc2nc2c(C)cccc12 : 3.00
CCCN(CC)CCCNc1c2ccc(OC)cc2nc2ccc(Cl)cc12 : 2.78
CCCN(CC)CCCNc1c2ccc(OC)cc2nc2ccc(C(F)(F)F)cc12 : 2.90
CCCN(CCCNc1c2ccc(OC)cc2nc2c(C)cccc12)CC(C)C : 3.00
CCCN(CCC)CCCNc1c2ccc(OC)cc2nc2ccc(Cl)cc12 : 2.60

Exercise: Using the record for `CCN(CCCNc1c2ccc(OC)cc2nc2ccc(C(F)(F)F)cc12)Cc1ccccc1O` , report its log10(EC50).
Solution: 3.59

###

- Test system: HEK293
- test-method-notes: Cytotoxicity against HEK293 cells relative to control
- Format: functional
- study-conditions: Homo sapiens, read-out: LD50 (the source's name)
readout-label: CC50

CCN(CCCNc1c2ccc(OC)cc2nc2c(C)c(F)ccc12)CC(C)C : 0.7 µM
CCCN(CC)CCCNc1c2ccc(OC)cc2nc2ccc(Cl)cc12 : 4.4 µM
CCCN(CC)CCCNc1c2ccc(OC)cc2nc2c(C)c(F)ccc12 : 0.8 µM
CCCN(CC)CCCNc1c2ccc(OC)cc2nc2ccc(C(F)(F)F)cc12 : 14.6 µM
CCCN(CCCNc1c2ccc(OC)cc2nc2c(C)cccc12)CC(C)C : 1.4 µM
CCN(CC)CCCC(C)Nc1c2ccc(Cl)cc2nc2ccc(OC)cc12 (stereo unspecified) [QUINACRINE] : 7.6 µM

Exercise: Using the record for `CCCN(CCC)CCCNc1c2ccc(OC)cc2nc2ccc(C(F)(F)F)cc12` , report its CC50.
Solution: 16.4 µM

Exercise: Using the record for `CCN(CCCNc1c2ccc(OC)cc2nc2ccc(C(F)(F)F)cc12)Cc1ccccc1O` , report its CC50.
Solution: 23.1 µM

Exercise: Using the record for `CCCN(CCC)CCCNc1c2ccc(OC)cc2nc2c(C)cccc12` , report its CC50.
Solution: 0.7 µM

Exercise: Using the record for `CCCN(CCC)CCCNc1c2ccc(OC)cc2nc2ccc(Cl)cc12` , report its CC50.
Solution: 10.7 µM

Exercise: Using the record for `CCCN(CCCNc1c2ccc(OC)cc2nc2ccc(C(F)(F)F)cc12)Cc1ccccc1` , report its CC50.
Solution: 22.4 µM

###

- test-method-notes: Therapeutic index, LD50 for ScN2a cells/EC50 for PrPSc accumulation in ScN2a cells
- Format: cell-based
- study-conditions: mouse, read-out: Ratio LD50/EC50
selectivity ratio listing for selected compounds.
API doc: respond with a numeric literal and nothing else, no unit.

Please review the entries below; each comes with its answer.
CCCN(CCC)CCCNc1c2ccc(OC)cc2nc2ccc(Cl)cc12 : 15.8
CCCN(CCC)CCCNc1c2ccc(OC)cc2nc2c(C)cccc12 : 1.3
CCCN(CC)CCCNc1c2ccc(OC)cc2nc2ccc(C(F)(F)F)cc12 : 9.8
CCN(CCCNc1c2ccc(OC)cc2nc2ccc(C(F)(F)F)cc12)Cc1ccccc1O : 2.6

Exercise: Using the record for `CCCN(CCCNc1c2ccc(OC)cc2nc2ccc(C(F)(F)F)cc12)Cc1ccccc1` , report its selectivity ratio.
Solution: 2.6

Exercise: Using the record for CCN(CC)CCCC(C)Nc1c2ccc(OC)cc2nc2ccc(Cl)cc12 (stereo not drawn) , report its selectivity ratio.
Solution: 23.3

Exercise: Using the record for `CCCN(CCC)CCCNc1c2ccc(OC)cc2nc2ccc(C(F)(F)F)cc12` , report its selectivity ratio.
Solution: 28.6

Exercise: Using the record for `CCCN(CCC)CCCNc1c2ccc(Cl)cc2nc2ccc(OC)cc12` , report its selectivity ratio.
Solution: 10.9

###

- Test system: ScN2a
- test-method-notes: Inhibition of PrPSc accumulation in mouse ScN2a cell line relative to control
- Type: functional, cell-based
readout-label: EC50 (nM)
Give a bare numeral; the unit nM is implied.

CCCN(CCC)CCCNc1c2ccc(OC)cc2nc2ccc(C(F)(F)F)cc12 : 400
CCCN(CCC)CCCNc1c2ccc(Cl)cc2nc2ccc(OC)cc12 : 600
CCCN(CCCNc1c2ccc(OC)cc2nc2ccc(C(F)(F)F)cc12)Cc1ccccc1 : 7100

Exercise: Using the record for CCN(CC)CCCC(C)Nc1c2ccc(Cl)cc2nc2ccc(OC)cc12 (stereo not given) , report its EC50.
Solution: 500

Exercise: Using the record for CCN(CC)CCCC(C)Nc1c2ccc(OC)cc2nc2ccc(Cl)cc12 (stereo not given) , report its EC50.
Solution: 700
